Target: Tubulin
Assay: Inhibition of tubulin (unknown origin) polymerization pre-incubated for 1 min measured for 1 min interval for 90 mins by fluorescence based assay
pIC50: −log10 of the molar value.
readout_kind: pIC50

a = COc1ccc(-c2ccsc2-c2cc(OC)c(OC)c(OC)c2)cc1O
b = COc1ccc(-c2sccc2-c2cc(OC)c(OC)c(OC)c2)cc1O
Query string: Compare reported pIC50 values for a and b . Which is lower? # respond with the chosen item's label
Result string: b
(b: 5.01, a: 5.30)

* * *

Assay: Anti-proliferative activity against human HT1080 cells after 72 hrs by MTT assay
Format: functional, cell-based
Settings: HT-1080, 72 h
readout_kind: IC50 (µM)
Write down the numeric answer in µM and omit the unit.

COc1ccc(/C=C\c2cc(OC)c(OC)c(OC)c2)cc1O
0.011
CCOC(=O)c1cc(-c2cc(OC)c(OC)c(OC)c2)c(-c2ccc(OC)c([N+](=O)[O-])c2)s1
12.7
CCOC(=O)c1cc(-c2ccc(OC)c([N+](=O)[O-])c2)c(-c2cc(OC)c(OC)c(OC)c2)s1
26.1
COc1cc(-c2ccsc2-c2ccc3ccccc3c2)cc(OC)c1OC
5.43
CCOC(=O)c1cc(-c2ccc(OC)cc2)c(-c2cc(OC)c(OC)c(OC)c2)s1
7.63

Query string: Bench note: what IC50 did COc1ccc(-c2cc(C(=O)O)sc2-c2cc(OC)c(OC)c(OC)c2)cc1 show?
Result string: 5.81

Query string: Can you share its IC50? I mean this compound: CCOC(=O)c1cc(-c2ccc(OC)c(O)c2)c(-c2cc(OC)c(OC)c(OC)c2)s1
Result string: 82.5

Query string: # input compound: COc1ccc(-c2ccsc2-c2cc(OC)c(OC)c(OC)c2)cc1[N+](=O)[O-] ; wanted: its IC50
Result string: 8.04

Query string: Could you tell me which IC50 is on file for COc1ccc(-c2sc(C(=O)O)cc2-c2cc(OC)c(OC)c(OC)c2)cc1 ?
Result string: 6.77

Query string: Entry under review: CCOC(=O)c1cc(-c2cc(OC)c(OC)c(OC)c2)c(-c2ccc(OC)c(O)c2)s1 . Reported IC50?
Result string: 3.22

Query string: Which IC50 value is on record for COc1ccc(-c2cc(C(=O)O)sc2-c2cc(OC)c(OC)c(OC)c2)cc1O ?
Result string: 11.4

Query string: Which IC50 is reported for this compound? CCOC(=O)c1cc(-c2cc(OC)c(OC)c(OC)c2)c(-c2ccc(OC)cc2)s1
Result string: 8.37

Query string: Quick check: IC50 of COc1ccc(-c2sccc2-c2cc(OC)c(OC)c(OC)c2)cc1O ?
Result string: 1.94

Query string: Record request: IC50 value, item COc1ccc(-c2cc(C(=O)O)sc2-c2cc(OC)c(OC)c(OC)c2)cc1[N+](=O)[O-]
Result string: 38.1

Numbers sourced from ChEMBL document CHEMBL3739424.
